Data origin: patent EP1144365B1

tested-system: α4β1 integrin (Homo sapiens, UniProt P05556+P13612)
Construct: a T-cell line, Jurkat, known to express the α4β1 integrin
Sequence (P13612 34-1032): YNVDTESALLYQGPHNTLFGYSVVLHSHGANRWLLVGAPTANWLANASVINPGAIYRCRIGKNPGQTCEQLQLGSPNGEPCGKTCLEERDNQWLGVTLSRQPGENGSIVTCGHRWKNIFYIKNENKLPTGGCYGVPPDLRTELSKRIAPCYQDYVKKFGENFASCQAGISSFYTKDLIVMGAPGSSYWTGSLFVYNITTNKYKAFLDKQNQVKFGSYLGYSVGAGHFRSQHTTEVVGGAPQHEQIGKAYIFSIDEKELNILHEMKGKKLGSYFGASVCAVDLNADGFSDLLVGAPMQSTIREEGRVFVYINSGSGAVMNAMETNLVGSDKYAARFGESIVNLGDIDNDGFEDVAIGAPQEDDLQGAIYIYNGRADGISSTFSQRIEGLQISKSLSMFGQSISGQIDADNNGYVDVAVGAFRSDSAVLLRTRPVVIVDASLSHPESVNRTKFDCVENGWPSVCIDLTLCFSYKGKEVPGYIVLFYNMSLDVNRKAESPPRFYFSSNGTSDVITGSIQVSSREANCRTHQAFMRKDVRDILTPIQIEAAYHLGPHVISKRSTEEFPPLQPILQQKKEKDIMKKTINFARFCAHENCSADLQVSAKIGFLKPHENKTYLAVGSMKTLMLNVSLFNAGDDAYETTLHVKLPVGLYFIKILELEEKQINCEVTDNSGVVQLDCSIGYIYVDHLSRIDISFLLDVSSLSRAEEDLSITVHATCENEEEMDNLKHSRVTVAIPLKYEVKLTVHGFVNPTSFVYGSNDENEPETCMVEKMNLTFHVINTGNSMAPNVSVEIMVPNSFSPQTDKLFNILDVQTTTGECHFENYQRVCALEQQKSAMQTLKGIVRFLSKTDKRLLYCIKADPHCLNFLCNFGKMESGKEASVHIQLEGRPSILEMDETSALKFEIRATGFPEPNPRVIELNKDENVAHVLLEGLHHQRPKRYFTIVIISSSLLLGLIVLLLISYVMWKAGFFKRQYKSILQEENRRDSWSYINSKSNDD
Sequence (P05556 21-798): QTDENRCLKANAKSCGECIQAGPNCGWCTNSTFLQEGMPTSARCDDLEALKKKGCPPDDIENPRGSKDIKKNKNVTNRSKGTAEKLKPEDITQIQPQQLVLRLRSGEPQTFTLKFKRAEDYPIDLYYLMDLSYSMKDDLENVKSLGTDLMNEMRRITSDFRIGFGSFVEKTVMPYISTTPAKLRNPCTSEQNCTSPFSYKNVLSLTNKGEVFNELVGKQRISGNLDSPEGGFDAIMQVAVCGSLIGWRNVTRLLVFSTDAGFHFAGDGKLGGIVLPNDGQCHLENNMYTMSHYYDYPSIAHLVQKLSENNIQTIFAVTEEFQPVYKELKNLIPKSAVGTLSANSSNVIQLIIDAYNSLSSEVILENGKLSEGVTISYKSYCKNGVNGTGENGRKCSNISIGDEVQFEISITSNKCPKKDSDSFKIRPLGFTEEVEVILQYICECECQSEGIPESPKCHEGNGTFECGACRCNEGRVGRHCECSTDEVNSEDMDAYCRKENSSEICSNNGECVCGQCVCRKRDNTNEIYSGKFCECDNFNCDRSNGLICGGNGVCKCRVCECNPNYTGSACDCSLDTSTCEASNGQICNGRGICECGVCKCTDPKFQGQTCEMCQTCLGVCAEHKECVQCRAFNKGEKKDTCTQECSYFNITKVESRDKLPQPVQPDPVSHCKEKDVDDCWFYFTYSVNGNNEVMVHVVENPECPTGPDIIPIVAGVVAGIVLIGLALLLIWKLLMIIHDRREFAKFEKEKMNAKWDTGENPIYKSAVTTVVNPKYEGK
protocol-text: Jurkat-Endothelial Cell Adhesion Assay (Jurkat EC)
test-conditions: Jurkat cell adhesion to IL-1 stimulated endothelial cell monolayers
IC50 values by entry

Consider the worked cases shown below.
[
  {
    "molecule": "CC(C)(Oc1cccc(/C=C/C(=O)O)c1)C(=O)N[C@@H](Cc1ccc(NC(=O)c2c(Cl)cccc2Cl)cc1)C(=O)O",
    "IC50": "0.8 to 5 µM"
  },
  {
    "molecule": "O=C(O)c1ccc(C(=O)NC2CCCCC2C(=O)NC(Cc2ccc(NC(=O)c3c(Cl)cccc3Cl)cc2)C(=O)O)nc1 (stereo not shown)",
    "IC50": "0.8 to 5 µM"
  },
  {
    "molecule": "O=C(NC1(C(=O)N[C@@H](Cc2ccc(NC(=O)c3c(Cl)cccc3Cl)cc2)C(=O)O)CCCCC1)c1cc(O)c2ccccc2n1",
    "IC50": "0.8 to 5 µM"
  }
]

Continue with the next molecule.
Identify measured IC50 associated with O=C(N[C@@H](Cc1ccc(NC(=O)c2c(Cl)cccc2Cl)cc1)C(=O)O)c1ccc(O)c(CN2CCOCC2)c1
0.8 to 5 µM
